# credit: patent US20210380703A1

targetOrSystem: Mouse ACVR2A (mouse, UniProt P27038 20-135, limits assumed); also: test concentration or dose not given here
Sequence (P27038 20-135 limits assumed): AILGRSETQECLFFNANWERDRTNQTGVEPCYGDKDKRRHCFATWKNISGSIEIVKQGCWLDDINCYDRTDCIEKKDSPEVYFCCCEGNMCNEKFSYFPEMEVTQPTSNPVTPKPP
protocolText: ELISA
Known optical density of a selection of binders
State the answer as a number, implicitly in OD.

Here is how some binders turned out for optical density.
INSERT INTO assay_data (binder, measureunit, resultvalue) VALUES
  ('373_B12 (antibody, V domains shown) VH: EVQLLESGGGLVQPGGSLRLSCAASGFTFDSYGMNWVRQAPGKGLEWVSSINYNSGYTSYADSVKGRFTISRDNSKNTLYLQMNSLRAEDTAVYYCARSANWHDTALDYWGQGTLVTVSS VL: DIQMTQSPSSLSASVGDRVTITCRASQSIVSYVNWYQQKPGKAPKLLIYAATSRASGVPSRFSGSGSGTDFTLTISSLQPEDFATYYCQQSYDSPLTFGGGTKVEIK', 'OD', 3.08),
  ('372_F08 (antibody, V domains shown) VH: EVQLLESGGGLVQPGGSLRLSCAASGFTFSDYSMNWVRQAPGKGLEWVSNINYNSGYTGYADSVKGRFTISRDNSKNTLYLQMNSLRAEDTAVYYCARSANWHDTALDYWGQGTLVTVSS VL: DIQMTQSPSSLSASVGDRVTITCRASQSILTYVNWYQQKPGKAPKLVIYAATSRASGVPSRFSGSGSGTDFTLTISSLQPEDFATYYCQQSYDTPLTFGGGTKVEIK', 'OD', 3.22),
  ('370_C01 (antibody, V domains shown) VH: EVQLLESGGGLVQPGGSLRLSCAASGFTFDSYSMNWVRQAPGKGLEWVSGINYNSGYTGYADSVKGRFTISRDNSKNTLYLQMNSLRAEDTAVYYCARSANWHDTALDYWGQGTLVTVSS VL: DIQMTQSPSSLSASVGDRVTITCRASQSILTYLNWYQQKPGKAPKLVIYAATSLASGVPSRFSGSGSGTDFTLTISSLQPEDFATYYCQQSYDTPLTFGGGTKVEIK', 'OD', 3.38),
  ('371_G05 (antibody, V domains shown) VH: EVQLLESGGGLVQPGGSLRLSCAASGFTFDSYSMNWVRQAPGKGLEWVSGINYNSGYTGYADSVKGRFTISRDNSKNTLYLQMNSLRAEDTAVYYCARSANWHDTALDYWGQGTLVTVSS VL: DIQMTQSPSSLSASVGDRVTITCRASQSISSYLNWYQQKPGKAPKLLIYAVTSRASGVPSRFSGSGSGTDFTLTISSLQPEDFATYYCQQSYSSPLTFGGGTKVEIK', 'OD', 1.33);

We now examine a further binder.
Reported optical density for 370_G10 (antibody, V domains shown) VH: EVQLLESGGGLVQPGGSLRLSCAASGFTFSDYGMNWVRQAPGKGLEWVSGINYNSGYTSYADSVKGRFTISRDNSKNTLYLQMNSLRAEDTAVYYCARSANWHDTALDYWGQGTLVTVSS VL: DIQMTQSPSSLSASVGDRVTITCRASQSISSYLNWYQQKPGKAPKLLIYVVNNRASGVPSRFSGSGSGTDFTLTISSLQPEDFATYYCQQSYENPLTFGGGTKVEIK : what is it? 2.74
